Target: human Nav1.8 (Homo sapiens (Human), UniProt Q9Y5Y9)
Sequence (Q9Y5Y9 whole entry): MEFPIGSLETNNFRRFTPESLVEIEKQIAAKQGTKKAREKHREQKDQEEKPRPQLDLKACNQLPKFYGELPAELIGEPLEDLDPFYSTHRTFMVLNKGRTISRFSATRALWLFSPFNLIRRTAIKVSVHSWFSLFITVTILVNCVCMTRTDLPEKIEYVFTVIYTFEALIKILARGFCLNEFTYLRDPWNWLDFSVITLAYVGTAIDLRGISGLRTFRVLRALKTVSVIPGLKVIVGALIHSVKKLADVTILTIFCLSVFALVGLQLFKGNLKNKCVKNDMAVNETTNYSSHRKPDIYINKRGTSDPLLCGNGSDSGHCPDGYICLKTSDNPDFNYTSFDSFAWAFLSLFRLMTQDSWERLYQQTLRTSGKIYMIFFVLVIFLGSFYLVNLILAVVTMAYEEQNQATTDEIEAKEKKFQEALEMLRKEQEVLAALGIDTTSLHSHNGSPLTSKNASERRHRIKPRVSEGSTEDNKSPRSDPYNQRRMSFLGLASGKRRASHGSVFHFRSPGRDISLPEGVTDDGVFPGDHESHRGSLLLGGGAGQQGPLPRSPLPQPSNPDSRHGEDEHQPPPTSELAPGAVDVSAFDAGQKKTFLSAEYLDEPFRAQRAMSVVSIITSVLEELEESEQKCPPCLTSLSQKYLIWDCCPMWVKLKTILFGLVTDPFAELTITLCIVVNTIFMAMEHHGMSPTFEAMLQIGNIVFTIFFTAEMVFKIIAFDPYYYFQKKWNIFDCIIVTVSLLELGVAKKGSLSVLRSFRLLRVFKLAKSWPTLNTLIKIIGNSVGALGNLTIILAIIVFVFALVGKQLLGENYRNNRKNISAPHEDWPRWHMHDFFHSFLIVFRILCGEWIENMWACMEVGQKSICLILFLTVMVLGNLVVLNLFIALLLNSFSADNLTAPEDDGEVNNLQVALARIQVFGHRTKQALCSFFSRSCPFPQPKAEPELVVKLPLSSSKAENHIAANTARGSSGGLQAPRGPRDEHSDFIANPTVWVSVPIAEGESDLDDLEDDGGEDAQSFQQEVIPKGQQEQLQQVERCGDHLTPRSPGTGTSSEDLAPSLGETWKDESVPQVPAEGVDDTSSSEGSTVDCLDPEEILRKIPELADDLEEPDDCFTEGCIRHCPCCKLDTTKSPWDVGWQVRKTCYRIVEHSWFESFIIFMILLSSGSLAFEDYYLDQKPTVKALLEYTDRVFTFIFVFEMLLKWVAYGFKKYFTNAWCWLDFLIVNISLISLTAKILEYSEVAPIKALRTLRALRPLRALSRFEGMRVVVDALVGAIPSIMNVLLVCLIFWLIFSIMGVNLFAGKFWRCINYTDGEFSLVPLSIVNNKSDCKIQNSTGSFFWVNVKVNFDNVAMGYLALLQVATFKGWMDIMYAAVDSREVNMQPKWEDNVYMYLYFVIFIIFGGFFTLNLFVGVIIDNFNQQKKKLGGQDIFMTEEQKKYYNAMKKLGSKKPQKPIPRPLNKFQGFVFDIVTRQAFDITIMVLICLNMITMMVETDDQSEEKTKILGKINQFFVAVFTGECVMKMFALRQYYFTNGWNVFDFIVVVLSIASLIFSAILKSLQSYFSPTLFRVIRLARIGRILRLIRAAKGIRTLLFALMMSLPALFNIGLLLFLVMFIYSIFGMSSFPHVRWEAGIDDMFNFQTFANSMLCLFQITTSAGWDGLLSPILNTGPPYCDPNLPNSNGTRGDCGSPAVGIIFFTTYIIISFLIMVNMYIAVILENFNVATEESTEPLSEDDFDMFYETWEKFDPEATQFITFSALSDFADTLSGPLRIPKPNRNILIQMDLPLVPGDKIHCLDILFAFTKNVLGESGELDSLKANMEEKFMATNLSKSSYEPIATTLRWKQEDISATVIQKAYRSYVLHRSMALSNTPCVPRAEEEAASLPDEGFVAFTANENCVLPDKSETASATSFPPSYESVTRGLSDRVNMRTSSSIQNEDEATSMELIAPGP
Test: Nav1.8 Qube automated patch-clamp assay
Conditions: Nav1.8 Qube Assay; human Nav1.8 channels stably expressed in HEK 293 cells
Reported pIC50 values for the following molecules.
Value format note: pIC50 is -log10 of concentration (mol/L); just state the number.

CC1CN(c2ncc(C(F)(F)F)cc2C(=O)Nc2ccc3c(c2)S(=O)(=O)NC3)CCC1(F)F (single isomer, unassigned) [Example 112] : 7.14

Tested system human Nav1.8 (Homo sapiens (Human), UniProt Q9Y5Y9); pIC50 recorded for N#Cc1cccc(NC(=O)c2cc(C(F)(F)F)cnc2N2CCCCCC2)c1 was 6.60

Tested system human Nav1.8 (Homo sapiens (Human), UniProt Q9Y5Y9); pIC50 recorded for NS(=O)(=O)c1cccc(NC(=O)c2cc(C(F)(F)F)cnc2N2CCC3(CC2)CC3)c1 was 7.24

Tested system human Nav1.8 (Homo sapiens (Human), UniProt Q9Y5Y9); pIC50 recorded for O=C(Nc1cccc(S(=O)(=O)Nc2ccncn2)c1)c1cc(C(F)(F)F)cnc1N1CCCCCC1 was 6.16
